# Assay Comment: yeast display, Sf9 membrane polyspecificity reagent, FACS + sequencing; frameworks hold sequencing errors
Measured Metric: polyreactivity (PSR sort gate)

The cases that follow already have their polyreactivity (PSR sort gate) on record.
Which polyreactivity (PSR sort gate) is listed for `QVQLVESGGGLVQAGGSLRLSCAASGSTSPINAMRWYRQAPGKERELVAVISSSGGRTYYADSVKGRFTISRDNAKNTVYLQMNSLKPEDTAVYYFDKRFSRRQPDYDYWGQGTQVTVSS` ? high polyreactivity

Param item: `QVQLVESGGGLVQAGGSLRFSCAASGHIFFYYTMGWYRQAPGKERELVAGITQSGGNTYYADSVKGRFTISRDNAKNTVYLQMNSLKPEDTAVYYCAARIRGTWKYGYWGQGTQVTVSS` low polyreactivity

Record: `QVQLVESGGGLVQAGGSLRLSCAASGYTFYAYAMGWYRQAPGTERELVAAITSGSSTYYADSVKGRFTISRDNAKNTVYLQMNSLKPEDTAVYYCSAEVFPGYDYWGQGTQVTVSS` low polyreactivity

Again, but for `QVQLVESGGGLVQAGGSLRLSCAASGRIFRPNAMGWYRPAPGKERELVAAISYSGATTYYADSVKGRFTISRDNAKNTVYLQMNSLKPEVTAVYYCAAGGTSGQEFGYWGQGTQVTVSS` low polyreactivity

Request: `QVQLVESGGGLVQAGGSLRLSCPASGSTIPVNAMVWYRQAPGKERELVAAIRSSTGRTYYADSVKGRFTTSRDNAKNTVYLQMNSLKPEDTAVYYCAADYRYNRGITSNKDYDYWGQGTQVTVSS` low polyreactivity

// repeat for `QVQLVESGGGLVQAGGSLRLSCAASGYIFSGYAMGWYRQAPGKERELVAAISSSGGRTYYADSVKGRFTISRDNAKNTVYLQMNSLKPEDTAVYYCAADAVYYHFDYWGQGTQVTVSS` and report high polyreactivity

Also check `QVQLVESGGGLVQAGGSLRLSCAASGFIFYYYAMGWYRPAPGKERELVAAISVRGGRTYYADSVKGRFTISRDNAKNTVYLQMNSLKPEDTAVYYCAADLYNRGRGSSQSYRTGYDYWGQGTQVTVSS` high polyreactivity

What would you report for `QVQLVESGGGLVQAGGSLRLSCAASGSIFGGYAMGWYRQAPGKERELVAVISSGGSTNYADSVKGRFTISRDNAKNTVYLQMNSLKPEDTAVYYCAATVIYAYRGHFYQYDYWGQGTQVTVSS` ? high polyreactivity

Consider the following items and state reported polyreactivity (PSR sort gate) for each.
1. QVQLGESGGGLVQAGGSLRLSCAASGRIFNVNVMGWYRQAPGKDMELVAAITSGGSTNYADSVKGRFTISRDNAKNTVYLQMNSLKPEDTAVYYCAKDYQYGFGEYPYDYWGQGTQVTVSS
2. QVQLVESGGGLVQAGGSHRLSCAASGITFRRNTMGWYRQAPGKERELVATISWRGGNTFYADSVKGRFTFSRDNAKNTVYLQMNSLKPEDTAVYYCNARGYGTLIVRRERMDYWGQGTQVTVSS
3. QVQLVESGGGLVQAGGSLRLSCAASGIIFAANTMGWYRQAPGKDREFVAAISKRGGTTYYADSVKGRFTISRDNAKNTVYLQMNSLKPEDSAVYYCNRRNGWSRGEYWGQGTQVTVSS

1: low polyreactivity; 2: high polyreactivity; 3: high polyreactivity
